assay: Neuroprotective activity against glutamate-induced transglutaminase-2 expression albino rat astrocytes assessed as reduction in transglutaminase level at 25 uM by immunoblotting; type: functional, cell-based; settings: Astrocyte
The source made the active and inactive calls. The rule behind the calls is not given here.
Classes used: active, inactive

* CC(C)=CCN1CC[C@]2(C)c3cc(O)ccc3C[C@H]1[C@H]2C [(+)-PENTAZOCINE] | active
* COC(=O)[C@]1(c2ccc(C)cc2)C[C@@H]1CN1CCC(O)(c2ccccc2)CC1 | active
* COC(=O)C1(c2ccc(C)cc2)CC1CN1CCC(O)(c2ccccc2)CC1 (racemic) | inactive
* CC[C@H]1C[C@H]2C[C@H]3c4[nH]c5ccc(OC)cc5c4CCN(C2)[C@@H]13 | inactive
* COC(=O)[C@@]1(c2ccc(C)cc2)C[C@H]1CN1CCC(O)(c2ccccc2)CC1 | inactive

###

biological target: Sigma non-opioid intracellular receptor 1 (Cavia porcellus); assay: Displacement of [3H](+)-pentazocine from guinea pig sigma1 opioid receptor by liquid scintillation counting
Sequence (Q60492 whole entry): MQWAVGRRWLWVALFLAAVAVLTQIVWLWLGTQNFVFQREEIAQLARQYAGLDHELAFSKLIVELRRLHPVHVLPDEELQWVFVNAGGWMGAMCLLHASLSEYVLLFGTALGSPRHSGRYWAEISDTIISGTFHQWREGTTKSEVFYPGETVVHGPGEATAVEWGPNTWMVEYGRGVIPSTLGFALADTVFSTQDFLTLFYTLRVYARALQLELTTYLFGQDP
In this section, each of the compounds is paired with its reported Ki.
Quantity: Ki (nM)

* COC(=O)C1(c2ccc(C)cc2)CC1CN1CCC(O)(c2ccccc2)CC1 (racemic) | 1.8
* COC(=O)[C@@]1(c2ccc(C)cc2)C[C@H]1CN1CCC(O)(c2ccccc2)CC1 | 13
* COC(=O)[C@]1(c2ccc(C)cc2)C[C@@H]1CN1CCC(O)(c2ccccc2)CC1 | 1.9

###

test: Displacement of [3H]-DTG from sigma2 opioid receptor by liquid scintillation counting; parameters: species or system Cavia porcellus
In this section, each of the molecules is paired with its reported Ki.
Quantity: Ki (nM)

* COC(=O)C1(c2ccc(C)cc2)CC1CN1CCC(O)(c2ccccc2)CC1 (racemic) | 20.8
* COC(=O)[C@]1(c2ccc(C)cc2)C[C@@H]1CN1CCC(O)(c2ccccc2)CC1 | 50.2
